- System: NUGC-4 (Gastric Carcinoma)
- assaySummary: combination Emax (second highest fraction inhibited in the dose matrix, 72 h); higher = more inhibition; extreme values may be limits of the assay
// reported combination Emax per item
The answer should be written as a number, with no unit following it.

compound: CC(=O)c1c(C)c2cnc(Nc3ccc(N4CCNCC4)cn3)nc2n(C2CCCC2)c1=O [Palbociclib] + CN(CC[C@H](CSC1=CC=CC=C1)NC2=C(C=C(C=C2)S(=O)(=O)NC(=O)C3=CC=C(C=C3)N4CCC(CC4)[C@H](C5=CC=CC=C5C6=CC=C(C=C6)Cl)O)S(=O)(=O)C(F)(F)F)CCO [AZD4320] (first compound max 10 µM, 7x7, partner max 1 µM)
testSystem: NUGC-4 (Gastric Carcinoma)
combination Emax: 0.411

Attention now shifts to the item below.
Req: Look up combination Emax for this compound: CN(CCO)CC[C@H](CSc1ccccc1)Nc1ccc(S(=O)(=O)NC(=O)c2ccc(N3CCC([C@@H](O)c4ccccc4-c4ccc(Cl)cc4)CC3)cc2)cc1S(=O)(=O)C(F)(F)F [AZD4320] + C[C@@H](Nc1cc(F)cc(F)c1)c1cc(C(=O)N(C)C)cc2c(=O)cc(N3CCOCC3)oc12 [AZD8186] (first compound max 1 µM, 7x7, partner max 3 µM)
Resp: 0.564

----------
- System: SNU-449 (Hepatocellular Carcinoma)
- assaySummary: Bliss excess, mean over the matrix (fraction); higher = more synergy
// reported Bliss excess per item
The answer should be written as a number, with no unit following it.

Would you please look over these solved cases?
compound: NC1(C(=O)N[C@@H](CCO)c2ccc(Cl)cc2)CCN(c2ncnc3[nH]ccc23)CC1 [Capivasertib] + Cn1cnc2c(F)c(Nc3ccc(Br)cc3Cl)c(C(=O)NOCCO)cc21 [Selumetinib] (first compound max 10 µM, 7x7, partner max 10 µM)
Bliss excess: -0.0113
--
compound: COc1cccc(OCCCN)c1-c1cc(Nc2cnc(C#N)cn2)n[nH]1 [Prexasertib] + C=CCn1c(=O)c2cnc(Nc3ccc(N4CCN(C)CC4)cc3)nc2n1-c1cccc(C(C)(C)O)n1 [AZD1775] (first compound max 1 µM, partner max 1 µM)
Bliss excess: -0.0048
--
compound: COc1cc2ncnc(Nc3ccc(F)c(Cl)c3)c2cc1OCCCN1CCOCC1 [Gefitinib] + CC(C)n1c(=O)n(C)c2cnc3cc(F)c(-c4ccc(OCCCN5CCCCC5)nc4)cc3c21 [AZD1390] (first compound max 10 µM, 7x7, partner max 0.3 µM)
Bliss excess: -0.0529

Attention now shifts to the item below.
Req: Look up Bliss excess for this compound: COc1cccc(OCCCN)c1-c1cc(Nc2cnc(C#N)cn2)n[nH]1 [Prexasertib] + CCc1c2c(nc3ccc(O)cc13)-c1cc3c(c(=O)n1C2)COC(=O)[C@]3(O)CC [SN-38] (first compound max 1 µM, 7x7, partner max 0.3 µM)
Resp: -0.0091

----------
// reported Bliss excess per item
- Test system: A673 (Ewing's Sarcoma)
- assaySummary: Bliss excess, mean over the matrix (fraction); higher = more synergy
The answer should be written as a number, with no unit following it.

compound: Cc1cc2ncnn2cc1Nc1ncc2c(n1)n(C1CCOCC1)c(=O)n2C [AZD7648] + O=C(c1cc(Cc2n[nH]c(=O)c3ccccc23)ccc1F)N1CCN(C(=O)C2CC2)CC1 [Olaparib] (first compound max 10 µM, 7x7, partner max 10 µM)
testSystem: A673 (Ewing's Sarcoma)
recordedValue: -0.015

Attention now shifts to the item below.
Req: Give the reported Bliss excess for CC1(C)CCC(CN2CCN(c3ccc(C(=O)NS(=O)(=O)c4ccc(NCC5CCOCC5)c([N+](=O)[O-])c4)c(Oc4cnc5[nH]ccc5c4)c3)CC2)=C(c2ccc(Cl)cc2)C1 [Venetoclax] + C[C@@H](Nc1cc(F)cc(F)c1)c1cc(C(=O)N(C)C)cc2c(=O)cc(N3CCOCC3)oc12 [AZD8186] (first compound max 1 µM, 7x7, partner max 3 µM) (system: A673 (Ewing's Sarcoma)).
Resp: -0.023
